Biological target: G1 APOL1 (Homo sapiens, UniProt O14791, I384M/S342G)
Construct: expressed in transfected cells
Sequence (O14791 28-398 S342G/I384M): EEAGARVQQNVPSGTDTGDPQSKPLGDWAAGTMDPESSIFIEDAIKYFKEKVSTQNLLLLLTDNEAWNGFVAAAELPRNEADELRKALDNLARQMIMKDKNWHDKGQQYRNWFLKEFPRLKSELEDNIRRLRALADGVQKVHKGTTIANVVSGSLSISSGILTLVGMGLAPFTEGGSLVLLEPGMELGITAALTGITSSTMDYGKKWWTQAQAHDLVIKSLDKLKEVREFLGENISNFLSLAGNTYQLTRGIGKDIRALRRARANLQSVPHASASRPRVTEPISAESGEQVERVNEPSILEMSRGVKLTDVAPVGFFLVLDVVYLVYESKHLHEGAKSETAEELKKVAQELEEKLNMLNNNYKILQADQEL
Assay: Acute APOL1 Thallium Assay with inducible stable clones of HEK 293 cells
Type: cell-based
Details: HEK 293 T-Rex inducible stable clone expressing G1 APOL1; read-out: Thallium Assay (IC50)
Assay Metric: IC50

O=S(=O)(NC[C@H]1C[C@H](c2c(-c3ccc(F)cc3)[nH]c3c(F)cc(F)cc32)C1)c1n[nH]c2ncccc12	> 1 µM

get_value(item= `O=C(NC[C@H]1C[C@H](c2c(-c3ccc(F)cc3)[nH]c3c(F)cc(F)cc32)C1)c1n[nH]c(=O)[nH]1` , readout=IC50) returns > 1 µM

Short answer for NC1CC(c2c(-c3ccc(F)cc3)[nH]c3c(F)cccc23)C1 (centres unmarked) : IC50 was 0.25 to 1 µM

Reported IC50 of CC(C(=O)NC[C@H]1C[C@@H](c2c(-c3ccc(F)cc3)[nH]c3c(F)cc(F)cc32)C1)n1ccnc1 (some centres unmarked) : > 1 µM

Reported IC50 ( `O=C(NC[C@H]1C[C@H](c2c(-c3ccc(F)cc3)[nH]c3c(F)cc(F)cc32)C1)[C@@H]1C[C@H](F)CN1` ) = > 1 µM

Reported IC50 for O=C1NCC[C@@H]1NCC1CC(c2c(-c3ccc(F)cc3)[nH]c3c(F)cc(F)cc23)C1 (some centres unmarked) was > 1 µM

Just so you know, measured IC50 for `C[C@H](NC(=O)OC(C)(C)C)C(=O)NC[C@H]1C[C@H](c2c(-c3ccc(F)cc3)[nH]c3c(F)cc(F)cc32)C1` came out at > 1 µM

get_value(item= `O=C1CC(C(=O)NC[C@H]2C[C@@H](c3c(-c4ccc(F)cc4)[nH]c4c(F)cc(F)cc43)C2)CC(=O)N1` , readout=IC50) returns > 1 µM

Query `NS(=O)(=O)CCC(=O)NC[C@H]1C[C@@H](c2c(-c3ccc(F)cc3)[nH]c3c(F)cc(F)cc32)C1` yields IC50 of > 1 µM

GET /value?item= `O=C(CC1COC1)NC[C@H]1C[C@@H](c2c(-c3ccc(F)cc3)[nH]c3c(F)cc(F)cc32)C1` &field=IC50 returns > 1 µM

For `O=S(=O)(CCO)N[C@H]1C[C@H](c2c(-c3ccc(F)cc3)[nH]c3c(F)cc(F)cc32)C1` the compound record lists IC50 as < 0.25 µM

IC50 reported for this compound `N[C@H]1C[C@H](Cc2c(-c3ccc(F)cc3)[nH]c3c(F)cc(F)cc23)C1` : < 0.25 µM

Lab note: measured IC50 of CC(C(=O)N[C@H]1C[C@@H](c2c(-c3ccc(F)cc3)[nH]c3c(F)cc(F)cc32)C1)N(C)C (mixture of isomers) was > 1 µM

Form: compound = `O[C@H]1C[C@@H](c2c(-c3ccc(F)cc3)[nH]c3c(F)cc(F)cc32)C1` ; IC50 = 0.25 to 1 µM

* * *

Target: G1 APOL1 (Homo sapiens, UniProt O14791, I384M/S342G)
Construct: expressed in transfected cells
Experiment: Acute APOL1 Thallium Assay with inducible stable clones of HEK 293 cells
Format: cell-based
Details: HEK 293 T-Rex inducible stable clone expressing G1 APOL1; read-out: Thallium Assay (IC50)
pIC50: −log10 of the molar value.
Quick reference for pIC50 among some compounds

Example results:
O=C(NC[C@H]1C[C@H](c2c(-c3ccc(F)cc3)[nH]c3c(F)cc(F)cc32)C1)c1cccnn1	< 6.00
O=C(CC1CCCOC1)NC[C@H]1C[C@@H](c2c(-c3ccc(F)cc3)[nH]c3c(F)cc(F)cc32)C1 (stereo partly shown)	< 6.00
CO[C@@H](C)C(=O)NC[C@H]1C[C@H](c2c(-c3ccc(F)cc3)[nH]c3c(F)cc(F)cc32)C1	< 6.00

Recorded pIC50 (compound Cc1cccc(-c2[nH]c3c(F)cc(F)cc3c2C2CC(CN)C2)c1 (stereo not shown) ): > 6.60
